- assay overview: Pharmacokinetic mouse studies
- Assay type: in vivo, C57BL/6 mice
- experimental setup: female, mouse, 200 mg/kg; C57BL/6 mice, single IP dose, serum
readout kind: Cmax (ng/mL)
Report only the number, with the unit ng/mL understood.

Challenge: I would be grateful if you could share the reported Cmax for C[C@]12CCC(=O)N(Cc3ccc(Br)cc3)C1=CC[C@@H]1[C@@H]2C(=O)C[C@]2(C)C(=O)CC[C@@H]12 .
Response given: 19800

---

- assay overview: Pharmacokinetic mouse studies
- Format: in vivo, C57BL/6 mice
- experimental setup: female, mouse, 200 mg/kg; C57BL/6 mice, single IP dose, serum
readout kind: AUC (ng·h/mL)
Supply the numeric figure in ng·h/mL, leaving out any unit text.

Challenge: What value of AUC has been reported for the following compound? C[C@]12CCC(=O)N(Cc3ccc(Br)cc3)C1=CC[C@@H]1[C@@H]2C(=O)C[C@]2(C)C(=O)CC[C@@H]12
Response given: 36800
